EXPERIMENT: Plasma pharmacokinetics of danofloxacin after i.m. administration to lactating sheep fed control or flaxseed-enriched diets
Type: in vivo
TEST CONTEXT: female, Assaf, im, 1.25 mg/kg, 1.25 mg/kg i.m., control diet, mean ± SD, n = 6, read-out: AUC 0–24
PROPERTY MEASURED: AUC(0-t) (ng·h/mL)

1) CN1C[C@@H]2C[C@H]1CN2c1cc2c(cc1F)c(=O)c(C(=O)O)cn2C1CC1
1740

###

EXPERIMENT: Enterolignans and conjugates in plasma and milk of sheep fed flaxseed-enriched diets (UPLC-QTOF-MS)
Format: in vivo
TEST CONTEXT: qualitative
Method: Eighteen lactating […] (3-4 months in lactation and weighing 66-105 kg) were used and milked twice daily. The animals were parasite-free, and drinking water was available ad libitum. […] Quantification of enterolactone and enterodiol was determined by interpolation in the calibration curve obtained from their own available standards. These metabolites were quantified in MS by peak area integration of their extracted ion chromatograms. […]
Structures can show the parent of a compound that is named as a salt.
PROPERTY MEASURED: Localization (matrix in which the compound was identified)

1. OC[C@H](Cc1cccc(O)c1)[C@H](CO)Cc1cccc(O)c1
Plasma, milk
2. O=S(=O)(O)Oc1cccc(C[C@@H](CO)[C@H](CO)Cc2cccc(O)c2)c1 [Enterodiol- sulfate]
Plasma
3. O=C1OC[C@H](Cc2cccc(O)c2)[C@H]1Cc1cccc(O)c1
Plasma, milk
4. O=C(O)[C@H]1O[C@@H](Oc2cccc(C[C@@H](CO)[C@H](CO)Cc3cccc(O)c3)c2)[C@H](O)[C@@H](O)[C@@H]1O [Enterodiol- glucuronide]
Plasma

###

EXPERIMENT: Plasma pharmacokinetics of danofloxacin after i.m. administration to lactating sheep fed control or flaxseed-enriched diets
Type: in vivo
TEST CONTEXT: female, Assaf, im, 1.25 mg/kg, 1.25 mg/kg i.m., control diet, mean ± SD, n = 6
PROPERTY MEASURED: Tmax (h)

1. CN1C[C@@H]2C[C@H]1CN2c1cc2c(cc1F)c(=O)c(C(=O)O)cn2C1CC1
1.5

###

EXPERIMENT: Milk pharmacokinetics (secretion into milk) of danofloxacin after i.m. administration to lactating sheep fed control or flaxseed-enriched diets
Format: in vivo
TEST CONTEXT: female, Assaf, sheep, milk, im, 1.25 mg/kg; 1.25 mg/kg i.m.; flaxseed 10% diet; mean ± SD, n = 6
PROPERTY MEASURED: Cmax (ng/mL)

1) CN1C[C@@H]2C[C@H]1CN2c1cc2c(cc1F)c(=O)c(C(=O)O)cn2C1CC1
2200

###

EXPERIMENT: Plasma pharmacokinetics of danofloxacin after i.m. administration to lactating sheep fed control or flaxseed-enriched diets
Assay type: in vivo
TEST CONTEXT: female, Assaf, im, 1.25 mg/kg, 1.25 mg/kg i.m., flaxseed 15% diet, mean ± SD, n = 6, read-out: AUC 0–24
PROPERTY MEASURED: AUC(0-t) (ng·h/mL)

1. CN1C[C@@H]2C[C@H]1CN2c1cc2c(cc1F)c(=O)c(C(=O)O)cn2C1CC1
1790

###

EXPERIMENT: Milk pharmacokinetics (secretion into milk) of danofloxacin after i.m. administration to lactating sheep fed control or flaxseed-enriched diets
Format: in vivo
TEST CONTEXT: female, Assaf, sheep, milk and plasma, intramuscular, 1.25 mg/kg, 1.25 mg/kg i.m.; flaxseed 10% diet; mean ± SD, n = 6; read-out: AUC 0–24 milk/plasma
PROPERTY MEASURED: Kp

1. CN1C[C@@H]2C[C@H]1CN2c1cc2c(cc1F)c(=O)c(C(=O)O)cn2C1CC1
7.81

###

EXPERIMENT: Plasma pharmacokinetics of danofloxacin after i.m. administration to lactating sheep fed control or flaxseed-enriched diets
Type: in vivo
TEST CONTEXT: female, Assaf, im, 1.25 mg/kg, 1.25 mg/kg i.m., flaxseed 15% diet, mean ± SD, n = 6
PROPERTY MEASURED: Cmax

1. CN1C[C@@H]2C[C@H]1CN2c1cc2c(cc1F)c(=O)c(C(=O)O)cn2C1CC1
300 ng/mL

###

EXPERIMENT: Plasma pharmacokinetics of danofloxacin after i.m. administration to lactating sheep fed control or flaxseed-enriched diets
Assay type: in vivo
TEST CONTEXT: female, Assaf, im, 1.25 mg/kg, 1.25 mg/kg i.m., flaxseed 10% diet, mean ± SD, n = 6
PROPERTY MEASURED: MRT (h)

1. CN1C[C@@H]2C[C@H]1CN2c1cc2c(cc1F)c(=O)c(C(=O)O)cn2C1CC1
4.77
